Below is a list of entries, each paired with its recorded Average IC50 (nM) Cyno IL-12; PHA blast IFN-gamma induction assay value.
Molecular target: recombinant purified cyno IL-12 p70 (cynomolgus monkey)
Sequence (P48095 23-328, chain 1 of 2): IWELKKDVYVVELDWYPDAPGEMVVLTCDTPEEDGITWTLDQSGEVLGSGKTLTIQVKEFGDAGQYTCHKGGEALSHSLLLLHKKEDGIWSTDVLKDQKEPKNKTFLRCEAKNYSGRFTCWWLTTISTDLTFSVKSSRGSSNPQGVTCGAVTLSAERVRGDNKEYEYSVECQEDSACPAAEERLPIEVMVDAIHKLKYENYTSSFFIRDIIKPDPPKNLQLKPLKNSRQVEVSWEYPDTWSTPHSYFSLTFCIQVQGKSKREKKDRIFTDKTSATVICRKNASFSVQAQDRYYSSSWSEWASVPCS
Sequence (P48091 23-219, chain 2 of 2, further chain): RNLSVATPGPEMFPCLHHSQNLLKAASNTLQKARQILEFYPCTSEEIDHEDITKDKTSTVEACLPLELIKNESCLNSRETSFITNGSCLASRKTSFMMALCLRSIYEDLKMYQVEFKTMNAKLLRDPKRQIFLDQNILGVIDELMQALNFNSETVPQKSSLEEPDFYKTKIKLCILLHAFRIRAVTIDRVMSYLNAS
Assay: cell-based or functional assay
recorded_metric: Average IC50 (nM) Cyno IL-12; PHA blast IFN-gamma induction assay

{"binder": "1A6-Chim (antibody, human IgG1, V domains shown) VH: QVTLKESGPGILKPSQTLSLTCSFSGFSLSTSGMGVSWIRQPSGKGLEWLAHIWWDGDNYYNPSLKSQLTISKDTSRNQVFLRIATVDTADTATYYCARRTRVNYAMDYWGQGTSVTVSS VL: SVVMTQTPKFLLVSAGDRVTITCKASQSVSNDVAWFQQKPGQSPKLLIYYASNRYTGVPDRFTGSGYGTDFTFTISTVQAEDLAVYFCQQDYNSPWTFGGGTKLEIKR", "value_unit": "nM", "val": 0.02}
{"binder": "1D4-Chim (antibody, human IgG1, V domains shown) VH: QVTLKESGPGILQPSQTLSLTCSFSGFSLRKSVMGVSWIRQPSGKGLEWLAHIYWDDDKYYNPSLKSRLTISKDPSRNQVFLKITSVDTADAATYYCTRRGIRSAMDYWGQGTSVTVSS VL: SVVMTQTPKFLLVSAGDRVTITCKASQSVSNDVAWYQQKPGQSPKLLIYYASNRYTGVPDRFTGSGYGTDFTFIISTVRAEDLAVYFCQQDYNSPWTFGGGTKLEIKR", "value_unit": "nM", "val": 0.07}
{"binder": "8E1-Chim (antibody, human IgG1, V domains shown) VH: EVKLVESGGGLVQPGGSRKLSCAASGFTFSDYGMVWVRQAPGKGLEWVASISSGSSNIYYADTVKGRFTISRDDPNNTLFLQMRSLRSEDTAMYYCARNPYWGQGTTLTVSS VL: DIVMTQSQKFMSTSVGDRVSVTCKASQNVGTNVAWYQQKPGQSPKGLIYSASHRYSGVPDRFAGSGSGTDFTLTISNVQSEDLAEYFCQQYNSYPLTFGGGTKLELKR", "value_unit": "nM", "val": 0.15}
{"binder": "3G7-Chim (antibody, human IgG1, V domains shown) VH: QVQLQQSGAELMKPGASVKISCKATGYTFNDYWIEWVKQRPGHGLEWIGGFSHGSGSTNYNEKFKGKATFTADSSSNTAYMQLSSLTSEDSAVYYCARRRFRGMDYWGQGTSVTVSS VL: SIVMTQTPKFLLVSAGDRVTITCKASQSVSNDVAWYQQKPGQSPKLLIYYASNRYTGVPDRFTGSGYGTDFTFTITTVQAEDLAVYFCQQDYSSPWSFGGGTKLEIKR", "value_unit": "nM", "val": 0.32}
